TARGET UNDER TEST: Topoisomerase II
TEST: Inhibition effects against the Topoisomerase II activities (DNA relaxation assay, DNA cleavage assay)
Type: biochemical
TEST PARAMETERS: supercoiled pBR322 DNA substrate, 30 minutes at 37° C.
PARAMETER MEASURED: IC50 (μg/ml), inhibition of Topoisomerase II activity (µg/mL)
Answers are plain numbers, in µg/mL.

Solved entries:
C[C@H](N)C(=O)Nc1cc(CO)cc(Nc2c3ccccc3nc3ccccc23)c1 [Example 45] ... 0.5
COc1cc(NC(=S)OCc2cc(N)cc(Nc3c4ccccc4nc4ccccc34)c2)cc(OC)c1 [Example 18] ... 3

Hey, can you go through the list below and give me IC50 (μg/ml), inhibition of Topoisomerase II activity for every item?
1. N[C@@H](Cc1ccccc1)C(=O)Nc1cc(CO)cc(Nc2c3ccccc3nc3ccccc23)c1 [Example 46]
2. Nc1cc(COC(=O)Nc2cc(F)cc(F)c2)cc(Nc2c3ccccc3nc3ccccc23)c1 [Example 12]

### Response
1: 3; 2: 0.5
